Target: URAT1^EM (humanized rat URAT1, rURAT1-3M) (Rattus norvegicus, UniProt Q3ZAV1, M481I/N35S/Y365F)
Sequence (Q3ZAV1 whole entry N35S/Y365F/M481I): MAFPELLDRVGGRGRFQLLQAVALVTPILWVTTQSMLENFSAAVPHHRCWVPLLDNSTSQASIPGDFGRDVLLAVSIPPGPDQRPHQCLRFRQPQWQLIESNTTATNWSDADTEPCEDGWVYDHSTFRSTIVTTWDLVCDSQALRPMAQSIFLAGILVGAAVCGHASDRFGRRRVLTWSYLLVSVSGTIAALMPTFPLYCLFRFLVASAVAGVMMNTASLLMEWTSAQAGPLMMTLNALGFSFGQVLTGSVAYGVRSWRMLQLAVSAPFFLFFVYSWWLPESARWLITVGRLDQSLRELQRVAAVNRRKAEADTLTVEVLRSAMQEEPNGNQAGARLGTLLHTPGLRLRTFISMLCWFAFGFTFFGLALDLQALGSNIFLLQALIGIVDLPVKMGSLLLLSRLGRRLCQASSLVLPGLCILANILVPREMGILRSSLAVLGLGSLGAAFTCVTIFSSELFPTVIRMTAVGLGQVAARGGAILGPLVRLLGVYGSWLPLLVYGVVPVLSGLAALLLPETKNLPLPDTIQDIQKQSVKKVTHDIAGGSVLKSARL
Test: cryo-EM structure at […] Å
Assay type: cell-based

{"columns": ["smilesRecord", "IC50, µM"],
 "data": [
  ["CC(C)(Sc1ccncc1-c1ccc(C#N)c2ccccc12)C(=O)O", 0.15]
]}

----------
Biological target: URAT1^EM (humanized rat URAT1, rURAT1-3M) (Rattus norvegicus, UniProt Q3ZAV1, M481I/N35S/Y365F)
Assay: cell-based

{"columns": ["compound", "IC50 (nM)"],
 "data": [
  ["CCc1oc2ccccc2c1C(=O)c1cc(Br)c(O)c(Br)c1 [BEN, benzbromarone]", 425]
]}
